testSystem: Aryl hydrocarbon receptor (Homo sapiens) (UniProt P35869)
Sequence (P35869 whole entry, looked up): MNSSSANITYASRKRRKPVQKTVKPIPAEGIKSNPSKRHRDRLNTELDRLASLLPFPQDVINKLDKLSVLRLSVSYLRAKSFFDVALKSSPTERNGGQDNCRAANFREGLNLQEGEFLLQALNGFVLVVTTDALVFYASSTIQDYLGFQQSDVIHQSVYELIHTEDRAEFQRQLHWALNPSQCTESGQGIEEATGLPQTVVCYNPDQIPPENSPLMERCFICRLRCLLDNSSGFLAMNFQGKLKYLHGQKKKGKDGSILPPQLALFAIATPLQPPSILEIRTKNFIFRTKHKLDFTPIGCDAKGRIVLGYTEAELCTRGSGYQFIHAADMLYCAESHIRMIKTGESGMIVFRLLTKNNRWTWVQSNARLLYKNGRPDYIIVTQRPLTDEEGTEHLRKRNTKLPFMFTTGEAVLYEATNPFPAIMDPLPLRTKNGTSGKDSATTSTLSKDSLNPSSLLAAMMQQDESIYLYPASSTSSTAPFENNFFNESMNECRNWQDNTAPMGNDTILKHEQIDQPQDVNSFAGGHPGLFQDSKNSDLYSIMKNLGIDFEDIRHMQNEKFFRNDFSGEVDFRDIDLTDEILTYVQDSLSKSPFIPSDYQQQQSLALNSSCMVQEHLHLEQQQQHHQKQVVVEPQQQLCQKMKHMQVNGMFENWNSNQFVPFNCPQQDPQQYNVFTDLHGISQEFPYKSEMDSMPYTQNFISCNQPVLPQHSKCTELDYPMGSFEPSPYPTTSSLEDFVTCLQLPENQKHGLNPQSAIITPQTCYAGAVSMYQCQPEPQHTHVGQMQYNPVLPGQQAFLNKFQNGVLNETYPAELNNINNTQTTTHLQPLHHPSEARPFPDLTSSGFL
protocolSummary: ATG_Ahr_CIS: Attagene CIS-FACTORIAL HepG2 Assay for human Aryl Hydrocarbon Receptor (Ahr) (AID 2282930)
setupConditions: HepG2 AhR cis-factorial reporter transcription; actives raise or lower the signal
Description: ATG_CIS is a cell-based, multiplexed-readout assay that uses HepG2, a human liver cell line, with measurements taken at 24 hours after chemical dosing in a 24-well plate.ATG_Ahr_CIS is one of 52 assay component(s) measured or calculated from the ATG_CIS assay. […] This assay endpoint, ATG_Ahr_CIS, was analyzed with bidirectional fitting relative to DMSO as the negative control and baseline of activity. […]
The source made the active and inactive calls. Rule for the calls: active = hit-call score of the fitted dose curve at least 0.9, where 1 is the maximum; inactive = score below 0.9.
The reply should name one outcome from yes (active), no (inactive)

CC1(C)[C@H](/C=C2\CCSC2=O)[C@@H]1C(=O)OCc1coc(Cc2ccccc2)c1
no
CC(=O)C(F)(F)C(F)(F)F
no
ClCc1ccccc1Cl
no
C[C@H]1C(=O)O[C@@H]2CCN3CC=C(COC(=O)[C@](C)(O)[C@]1(C)O)[C@H]23
no
C[N+](C)(C)Cc1ccccc1
no
O=C(Cc1ccccc1)OCCc1ccccc1
no
CCCCOC(C)=O
no
CCOP(=S)(OCC)SCSc1cc(Cl)ccc1Cl
no
CC1(C)COP(Oc2ccccc2)OC1
no
Fc1cccc(Cl)c1CCl
no

Task item: Assay outcome for Nc1c(Oc2ccccc2)cc(O)c2c1C(=O)c1ccccc1C2=O : what was it?
Reply: yes

Task item: Now consider CC(C)(C)c1cc([N+](=O)[O-])cc(C(C)(C)C)c1O and answer again.
Reply: no

Task item: Now consider CCOP(=O)(OCC)SCCSCC and answer again.
Reply: no

Data provenance: PubChem BioAssay (EPA / NIEHS)
